These measurements were taken from patent US11718600B2.

pIC50: −log10 of the molar value.
The reader will find pIC50 measurements below, all made with UniProt:P55072.
Sequence (P55072 whole entry): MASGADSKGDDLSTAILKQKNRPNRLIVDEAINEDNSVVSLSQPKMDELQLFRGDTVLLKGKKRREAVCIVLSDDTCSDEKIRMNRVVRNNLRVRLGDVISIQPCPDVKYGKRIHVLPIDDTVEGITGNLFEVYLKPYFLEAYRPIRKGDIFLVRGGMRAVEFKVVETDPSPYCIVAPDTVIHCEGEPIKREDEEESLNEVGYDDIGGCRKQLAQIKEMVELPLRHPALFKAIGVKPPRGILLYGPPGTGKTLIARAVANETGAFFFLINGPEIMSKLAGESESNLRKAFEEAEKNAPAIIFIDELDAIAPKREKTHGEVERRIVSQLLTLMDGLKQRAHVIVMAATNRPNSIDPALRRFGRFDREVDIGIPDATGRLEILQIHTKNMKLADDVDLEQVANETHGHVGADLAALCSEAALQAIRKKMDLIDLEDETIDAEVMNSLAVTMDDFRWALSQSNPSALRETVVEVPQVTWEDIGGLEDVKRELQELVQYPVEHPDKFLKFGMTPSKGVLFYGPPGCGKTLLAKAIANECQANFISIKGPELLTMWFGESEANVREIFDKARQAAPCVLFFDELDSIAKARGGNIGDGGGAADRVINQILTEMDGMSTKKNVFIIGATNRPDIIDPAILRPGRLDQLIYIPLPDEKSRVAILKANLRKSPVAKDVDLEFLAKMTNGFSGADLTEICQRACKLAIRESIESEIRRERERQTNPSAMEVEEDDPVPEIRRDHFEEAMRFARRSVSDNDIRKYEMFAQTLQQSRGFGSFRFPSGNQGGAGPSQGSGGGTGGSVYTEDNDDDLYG

CC(C)(C)OC(=O)N1CCN(C(=O)Cn2ncc(-c3cc(F)c(OCc4nnc(S[C@@H]5C=CCCC5)n4-c4cccnc4)cc3F)n2)CC1 ... > 6.00
[2H]C1([2H])C([2H])([2H])C([2H])([2H])C([2H])(Sc2nnc(COc3cc(F)c(-c4cn(CC(=O)N5CCNCC5)nn4)cc3F)n2-c2cccnc2)C1([2H])[2H] ... > 6.00
CC(C)(C)OC(=O)N1CCN(C(=O)Cn2cc(-c3cc(F)c(OCc4nnc(SC5C=CCCC5)n4-c4cccnc4)cc3F)nn2)CC1 (stereo not shown) ... > 6.00

Moving on to the next compound.
[Q] // fetch UniProt:P55072 pIC50 for CN1CCN(C(=O)Cn2ncc(-c3cc(F)c(OCc4nnc(SC5C=CCCC5)n4-c4cccnc4)cc3F)n2)CC1 (stereo not shown)
[A] > 7.30
